Measured values drawn from patent US20250277029A1 for this set.

Each record here notes measured Relative binding fold change compared to LIBC528116 (Fab).
Target: T1, huCB1 nanodisc (CB1-ND) (human, UniProt P21554 99-414)
T1 construct: The His-tagged CB1 is embedded in a POPC lipid nanodisc with MSP1D1 scaffold protein (molar ratio 480:8:1); also called huCB1-ND; #CB1-008
T1 sequence (P21554 99-414 limits assumed): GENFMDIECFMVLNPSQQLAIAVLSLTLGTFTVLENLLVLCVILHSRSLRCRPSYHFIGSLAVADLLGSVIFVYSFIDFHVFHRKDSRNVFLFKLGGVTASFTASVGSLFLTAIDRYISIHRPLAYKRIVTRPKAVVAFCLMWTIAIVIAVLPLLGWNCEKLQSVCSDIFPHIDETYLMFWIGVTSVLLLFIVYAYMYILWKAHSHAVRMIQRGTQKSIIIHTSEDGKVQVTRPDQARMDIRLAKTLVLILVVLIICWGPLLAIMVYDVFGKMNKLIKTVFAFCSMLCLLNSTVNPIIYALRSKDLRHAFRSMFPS
Assay: flow cytometry, yeast-displayed Fab, 0.2 nM CB1-ND, after background subtraction
Give a bare numeral; the unit fold is implied.

Tell me Relative binding fold change compared to LIBC528116 (Fab) reported for LIBC680800-1 (yeast-displayed Fab) (Fab, V domains shown) VH: QVQLQESGPGLVKPSQTLSLTCTVSGGSIRRGGDYWAWIRQHPGKGLEWIGHIYQTGSTNYNPRFKGRATISVNTYKNQFSLKLSSVTAADTAVYYCARNYDTLTGYSYYYYGMDVWGQGTTVTVSS VL: DIQMTQSPSSLSASVGDRVTITCRASQSISSYLNWYQQKPGKAPKLLIYSARALSSGVPSRFSGSGSGTDFTLTISSLQPEDFATYYCQQYRKFPLTFGGGTKVEIKR
2.52

Tell me Relative binding fold change compared to LIBC528116 (Fab) reported for LIBC680812-1 (yeast-displayed Fab) (Fab, V domains shown) VH: QVQLQESGPGLVKPSQTLSLTCTVSGGSIRRGGDYWGWIRQHPGKGLEWIGHVYQTGSTKYNPSFKDRATISVNTYKNQFSLKLSSVTAADTAVYYCARNYDTLTGYSYYYYGMDVWGQGTTVTVSS VL: DIQMTQSPSSLSASVGDRVTITCRASQSISSYLNWYQQKPGKAPKLLIYSARRLSSGVPSRFSGSGSGTDFTLTISSLQPEDFATYYCQQYRSYPITFGGGTKVEIKR
2.23

***
Tell me Relative binding fold change compared to LIBC528116 (Fab) reported for LIBC681594-1 (yeast-displayed Fab) (Fab, V domains shown) VH: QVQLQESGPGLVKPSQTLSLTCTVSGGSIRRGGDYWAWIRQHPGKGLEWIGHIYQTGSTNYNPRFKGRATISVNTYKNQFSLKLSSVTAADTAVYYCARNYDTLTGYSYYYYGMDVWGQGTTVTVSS VL: DIQMTQSPSSLSASVGDRVTITCRASQSISSYLNWYQQKPGKAPKLLIYKARKLSSGVPSRFSGSGSGTDFTLTISSLQPEDFATYYCQQFGSMPLTFGGGTKVEIKR
3.56
